- EXPERIMENTAL_TARGET: human GLP-1 receptor (human, UniProt P43220 24-463)
- Sequence (P43220 24-463): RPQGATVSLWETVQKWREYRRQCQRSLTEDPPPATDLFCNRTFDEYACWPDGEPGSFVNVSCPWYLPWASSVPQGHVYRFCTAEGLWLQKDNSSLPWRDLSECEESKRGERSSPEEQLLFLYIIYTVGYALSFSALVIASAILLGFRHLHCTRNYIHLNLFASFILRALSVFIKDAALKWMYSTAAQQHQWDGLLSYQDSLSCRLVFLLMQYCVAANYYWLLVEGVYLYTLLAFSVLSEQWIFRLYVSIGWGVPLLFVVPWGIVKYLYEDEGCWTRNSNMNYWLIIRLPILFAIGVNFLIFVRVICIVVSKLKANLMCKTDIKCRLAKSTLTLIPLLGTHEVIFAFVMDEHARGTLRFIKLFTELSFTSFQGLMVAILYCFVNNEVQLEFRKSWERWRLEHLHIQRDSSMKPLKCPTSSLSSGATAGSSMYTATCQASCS
- EXPERIMENT_NOTES: cell-based or functional assay
Non-standard residues stand in square brackets, D forms with d. No end group written: not given here. *: point of attachment. Bip(2'-Et-4'-OMe) = CCc1cc(OC)ccc1-c1ccc(C[C@H](N)C(=O)O)cc1; 2F‑APPA = 2-amino-5-(2-fluorophenyl)pentanoic acid; αMePhe(2-F) = C[C@](N)(Cc1ccccc1F)C(=O)O; hhPhe = N[C@@H](CCCc1ccccc1)C(=O)O; aThr = C[C@H](O)[C@H](N)C(=O)O; CNB = not defined here; Aib = CC(C)(N)C(=O)O; Moc = COC(=O)*
MEASURED_ENDPOINT: cAMP release, % activity, 10 nM (%)
Respond with the bare value in %.

BINDER	cAMP release, % activity, 10 nM [%]
Ac-H[Aib][CNB]GT[αMePhe(2-F)]TSD[Bip(2'-Et-4'-OMe)][2F‑APPA] (reading uncertain) [Seq. ID. No. 207: CH3CO-H-Aib-(CNB)-GT-(α-Me-2F-Phe)-TSD-Bip(OMe)-(2F-APPA)]	81

Now consider the entry below.
Look up cAMP release, % activity, 10 nM of Moc-H[Aib]QG[aThr][αMePhe(2-F)][aThr]SD[Bip(2'-Et-4'-OMe)][hhPhe] (also: reduced (CH2) bonds between 9-10 and 10-11) [Seq. ID. No. 198: CH3OCO-H-Aib-QG-T(allo)-(α-Me-2F-Phe)-T(allo)-SD-(CH2)-Bip(OMe)-(CH2)-(APPA)] and report it.
87
